# tested.system: EGFR (Homo sapiens)
# Sequence (P00533 25-1210): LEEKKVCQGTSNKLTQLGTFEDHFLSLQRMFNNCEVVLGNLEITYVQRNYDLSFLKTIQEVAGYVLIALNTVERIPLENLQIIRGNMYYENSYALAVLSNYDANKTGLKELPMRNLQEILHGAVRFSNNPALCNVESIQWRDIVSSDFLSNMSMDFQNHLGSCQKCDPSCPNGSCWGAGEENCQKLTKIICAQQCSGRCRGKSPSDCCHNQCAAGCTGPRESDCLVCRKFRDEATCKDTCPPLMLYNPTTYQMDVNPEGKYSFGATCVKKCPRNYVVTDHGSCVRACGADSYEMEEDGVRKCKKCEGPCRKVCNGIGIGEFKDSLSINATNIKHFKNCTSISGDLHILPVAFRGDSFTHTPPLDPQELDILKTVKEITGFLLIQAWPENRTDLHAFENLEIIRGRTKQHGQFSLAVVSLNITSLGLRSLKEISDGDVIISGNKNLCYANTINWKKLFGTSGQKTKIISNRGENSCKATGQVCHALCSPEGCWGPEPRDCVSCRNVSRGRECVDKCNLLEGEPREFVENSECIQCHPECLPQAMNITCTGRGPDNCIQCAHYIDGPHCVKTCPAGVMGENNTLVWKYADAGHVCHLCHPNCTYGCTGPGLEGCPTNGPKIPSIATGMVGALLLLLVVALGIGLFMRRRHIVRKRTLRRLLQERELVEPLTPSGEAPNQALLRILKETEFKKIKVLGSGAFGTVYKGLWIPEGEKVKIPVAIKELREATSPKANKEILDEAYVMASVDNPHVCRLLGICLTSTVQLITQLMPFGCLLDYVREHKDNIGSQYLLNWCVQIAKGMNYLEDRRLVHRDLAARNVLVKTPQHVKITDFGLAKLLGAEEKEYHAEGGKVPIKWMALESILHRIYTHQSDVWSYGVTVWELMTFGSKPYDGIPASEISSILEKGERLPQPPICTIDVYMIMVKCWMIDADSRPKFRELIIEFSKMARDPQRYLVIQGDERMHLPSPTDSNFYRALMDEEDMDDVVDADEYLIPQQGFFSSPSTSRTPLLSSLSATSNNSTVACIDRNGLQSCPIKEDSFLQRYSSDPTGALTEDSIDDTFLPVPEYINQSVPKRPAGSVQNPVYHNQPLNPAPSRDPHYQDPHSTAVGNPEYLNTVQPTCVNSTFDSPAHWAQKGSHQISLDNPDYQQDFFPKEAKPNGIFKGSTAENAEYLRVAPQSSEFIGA
# procedure.summary: EGFR signaling (pEGFR Tyr1068/total EGFR MSD) in A431 cells
# Type: cell-based
# Parameters: endogenous in cells; host or cells: A431, N87
# particulars: A431 cells; read-out: A431 pEGFR EC50
Entries and their EC50 values follow.

- smiles: "O=C(/C=C/CN1CC2CCC(C2)C1)N1CCc2c(sc3ncnc(Nc4ccc(Oc5ccc6ncnn6c5)c(Cl)c4)c23)C1"
  EC50: "< 100 nM"
- smiles: "Cc1ccc(Oc2ccc(Nc3ncnc4sc5c(c34)CCN(C(=O)/C=C/CN[C@H]3CC[C@H](OCC(F)(F)F)CC3)C5)cc2C)cn1"
  EC50: "< 100 nM"

The observed EC50 for `Cc1ccc(Oc2ccc(Nc3ncnc4sc5c(c34)CCN(C(=O)/C=C/CN[C@@H](C)CO)C5)cc2C)cn1` when tested with EGFR (Homo sapiens) stands at < 100 nM

The measurements presented in this section are drawn from patent US20240391931A1.
